Some molecules, each annotated with its measured IC50.
test system: Candida albicans; experiment: Antifungal activity against Candida albicans SC5314 assessed as inhibition of biofilm formation by XTT assay; type: functional, organism-based
MEASURE NAME: IC50 (µg/mL)

MOLECULE	MEASURE NAME	UNITS TEXT	VALUE OPERATOR	EXPERIMENTAL VALUE
C=C1C(=O)O[C@H]2C[C@H](C)[C@@H]3CC[C@@]4(C)O[C@@]34C[C@H]12	IC50	µg/mL	=	38
C=C1C(=O)O[C@@H]2C[C@@]3(C)CCCC(=C)[C@]3(O)C[C@H]12	IC50	µg/mL	=	36
C=C1C(=O)O[C@@H]2C[C@]3(C)[C@@H](CCC(C)=O)[C@@H]3C[C@H]12	IC50	µg/mL	>	128
C=C1C(=O)O[C@@H]2C[C@@]3(C)CCC[C@H](C)[C@@]34O[C@H]4[C@H]12	IC50	µg/mL	>	128
C=C1C(=O)O[C@@H]2C[C@@]3(C)C[C@@H](O)CC(=C)[C@@H]3C[C@H]12	IC50	µg/mL	=	15.4
C=C1C(=O)O[C@@H]2C[C@H](C)C(CCC(C)OC(=O)C(C)CC)=CC[C@H]12 (stereo not given in full)	IC50	µg/mL	>	128
C=C(C(=O)O)[C@@H]1CC[C@@]2(C)CCC=C(C)C2C1 (stereo not given in full)	IC50	µg/mL	>	128
C=C1C(=O)O[C@@H]2C[C@H](C)C(CCC(C)=O)=CC[C@H]12	IC50	µg/mL	>	128
OC(Cn1cncn1)(Cn1cncn1)c1ccc(F)cc1F	IC50	µg/mL	=	2
C=C1C(=O)O[C@@H]2C[C@H](C)C(CCC(C)O)=CC[C@H]12 (stereo not given in full)	IC50	µg/mL	>	128
